Reference for the values: patent US20200024330A1

Reported values of IC50, pseudovirus neutralization (TZM-bl) for individual entries
# assay target: HIV-1 Env of isolate ZM233 (HIV-1)
# assay: cell-based or functional assay

Known results for binders:
1456_A12 (PG16) (TCN-117) (antibody, V domains shown) VH: HEQLVEAGGGVVQPGGSLRLSCLASGFTFHKYGMHWVRQAPGKGLEWVALISDDGMRKYHSDSMWGRVTISRDNSKNTLYLQFSSLRVEDTAMFFCAREAGGPIWHDDVKYYDFNDGYYNYHYMDVWGKGTKVTVSS VL: QSALTQPASVSGSPGQTITISCNGTSRDVGGFDSVSWYQQSPGKAPKVMVFDVSHRPSGMSNRFSGSKSGNTASLTISGLHIEDEGDYFCSSLTDRSHRIFGGGTKLTVLG : < 0.01 µg/mL
1469_M23 (PG16) (TCN-118) (antibody, V domains shown) VH: QEKLVESGGGVVQPGGSLRLSCLASGFTFHKYGMHWVRQAPGKGLEWVALISDDGMRKYHSDSMWGRVTISRDNSKNTLYLQFSSLKVEDTAMFFCAREAGGPIWHDDVKYYDFNDGYYNYHYMDVWGKGTTVTVSS VL: QSALTQPASVSGSPGQTITISCNGTRSDVGGFDSVSWYQQSPGRAPKVMVFDVSHRPSGISNRFSGSKSGNTASLTISGLHIEDEGDYFCSSLTDRSHRIFGGGTKLTVLG : < 0.01 µg/mL

Entry 1489_I13 (PG16) (TCN-120) (antibody, V domains shown) VH: QEQLLESGGGVVQPGGSLRLSCLASGFTFHKYGMHWVRQAPGKGLEWVALISDDGMRKYHSNSMWGRVTISRDNSKNTLYLQFSSLKVEDTAMFFCAREAGGPIWHDDVKYYDFNDGYYNYHYMDVWGKGTTVTVSS VL: QSALTQPASVSGSPGQTITISCNGTSSDVGGFDSVSWYQQSPGKAPKVMVFDVSHRPSGISNRFSGSKSGNTASLTISGLHIEDEGDYFCSSLTDRSHRIFGGGTKVTVLG needs its IC50, pseudovirus neutralization (TZM-bl) filled in; supply it.
< 0.01 µg/mL
